# Test system: T1, full-length beta-Catenin (Uniprot ID P35222) (Homo sapiens (Human), UniProt P35222 1-781)
# T1 construct: also called bCat; B-Catenin
# T1 sequence: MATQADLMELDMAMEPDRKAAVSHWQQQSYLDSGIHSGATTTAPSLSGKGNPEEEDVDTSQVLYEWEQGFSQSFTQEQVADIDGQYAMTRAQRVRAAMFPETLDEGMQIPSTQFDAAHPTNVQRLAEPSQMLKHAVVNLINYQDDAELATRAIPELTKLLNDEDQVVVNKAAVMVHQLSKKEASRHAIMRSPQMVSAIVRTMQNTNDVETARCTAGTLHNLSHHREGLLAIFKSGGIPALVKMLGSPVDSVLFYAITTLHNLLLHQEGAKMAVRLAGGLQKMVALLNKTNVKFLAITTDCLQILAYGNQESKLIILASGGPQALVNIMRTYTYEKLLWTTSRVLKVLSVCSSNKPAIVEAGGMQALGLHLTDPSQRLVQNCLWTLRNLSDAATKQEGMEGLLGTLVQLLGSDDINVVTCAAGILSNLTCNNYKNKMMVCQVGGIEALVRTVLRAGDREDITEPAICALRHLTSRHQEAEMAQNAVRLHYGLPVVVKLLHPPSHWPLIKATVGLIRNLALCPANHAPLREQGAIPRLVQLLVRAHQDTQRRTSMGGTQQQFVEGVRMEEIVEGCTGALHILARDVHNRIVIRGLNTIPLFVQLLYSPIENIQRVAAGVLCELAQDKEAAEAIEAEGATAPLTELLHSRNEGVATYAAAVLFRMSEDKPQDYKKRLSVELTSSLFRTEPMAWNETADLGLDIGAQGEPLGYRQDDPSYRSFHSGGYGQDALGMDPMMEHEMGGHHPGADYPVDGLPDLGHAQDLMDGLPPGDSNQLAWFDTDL
# Assay comment: fluorescence polarization competition; 10 nM full-length beta-catenin, competitor 10 nM 5FAM-TCF4(10-53)
Starred links: 1 amine or outer side, 2 acyl side, 3 side chain; linkers in the order of their positions; H or OH if unused. Positions of bridges follow the written chain, without caps; N, C: chain ends. Non-standard residues stand in square brackets, D forms with d. Primed or numbered codes have the meaning given here. B5(4) = 2,2-bis(4-pentenyl)glycine = 2-amino-2-(pent-4-en-1-yl)hept-6-enoic acid (stitching residue), C=CCCCC(CCCC=C)(N[*:1])C(=O)[*:2]; B5(9) = 2-amino-2-(pent-4-en-1-yl)hept-6-enoic acid (2,2-bis(4-pentenyl)glycine), C=CCCCC(CCCC=C)(N[*:1])C(=O)[*:2]; B5(19) = 2-amino-2-(pent-4-en-1-yl)hept-6-enoic acid (bis(4-pentenyl)glycine), C=CCCCC(CCCC=C)(N[*:1])C(=O)[*:2]; 7F1NapA = 3-(7-fluoronaphthalen-1-yl)-L-alanine, O=C([C@H](Cc1cccc2ccc(F)cc12)N[*:1])[*:2]; 23FF = 2,3-difluoro-L-phenylalanine, O=C([C@H](Cc1cccc(F)c1F)N[*:1])[*:2]; Phe(3-CF3) = N[C@@H](Cc1cccc(C(F)(F)F)c1)C(=O)O; Phe(3-F) = N[C@@H](Cc1cccc(F)c1)C(=O)O; Bta = N[C@@H](Cc1csc2ccccc12)C(=O)O; αAllylPro = C=CC[C@@]1(C(=O)O)CCCN1; S8 = C=CCCCCCC[C@](C)(N)C(=O)O
Metric: pEC50
Please treat pEC50 as minus the base-10 logarithm of the molar concentration.

Observe how each entry below is paired with its result.
Binder: Ac-[αAllylPro]DA[B5(9)]DEAA[23FF]V[S8]F[Bta]Q-NH2 (staple 1-4, 4-11; also: earlier eluting HPLC isomer, E/Z not assigned, Stapled peptide) [I-390]
Result number: 5.47
//
Binder: Ac-[αAllylPro]DA[B5(19)]DDAAFV[S8]F[7F1NapA]Q-NH2 (staple 1-4, 4-11, Stapled peptide composition (olefin metathesis)) [I-368]
Result number: 5.30
//
Binder: Ac-[αAllylPro]DA[B5(19)]DDAAFA[S8]H[Bta]Q-NH2 (staple 1-4, 4-11, Stapled peptide composition (olefin metathesis)) [I-362]
Result number: 5.44
//
Binder: Ac-[αAllylPro]DA[B5(4)]DDAA[Phe(3-CF3)]A[S8]F[Bta]Q-NH2 (staple 1-4, 4-11; not fully specified; printed as Ac-PL3-Asp-Ala-B5-Asp-Asp-Ala-Ala-3F3MeF-Ala-S8-Phe-BztA-Gln-NH2, Stapled peptide) [I-377]
Result number: 5.88

Please look at the following binder next.
Q: Which measured pEC50 value corresponds to Ac-[αAllylPro]DA[B5(19)]DDAAFA[S8][Phe(3-F)][Bta]Q-NH2 (staple 1-4, 4-11, Stapled peptide composition (olefin metathesis)) [I-371] ?
A: 5.86
